Origin of values: patent US20150065440A1

target_desc: UniProt:P09038
Sequence (P09038 143-288, species assumed): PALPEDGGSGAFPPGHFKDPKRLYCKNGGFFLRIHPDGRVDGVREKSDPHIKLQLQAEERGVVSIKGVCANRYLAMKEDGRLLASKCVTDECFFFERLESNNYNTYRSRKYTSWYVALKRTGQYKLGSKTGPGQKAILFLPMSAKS
measurement_protocol: Growth factor binding assay (SPR solution affinity), FGF-2
condition_label: SPR, HBS-EP buffer containing 0.3 M NaCl, 25° C.; read-out: Kd FGF-2
pKd: −log10 of the molar value.
Listing of entries alongside the reported pKd.
test_readout: pKd

| molecule | test_readout | value_reported |
| --- | --- | --- |
| CC(C)CCCC(C)C1CCC2C3CCC4CC(OC5OC(COS(=O)(=O)O)C(OS(=O)(=O)O)C(OS(=O)(=O)O)C5OC5OC(COS(=O)(=O)O)C(OS(=O)(=O)O)C(OC6OC(COS(=O)(=O)O)C(OS(=O)(=O)O)C(OC7OC(COS(=O)(=O)O)C(OS(=O)(=O)O)C(OC8OC(COS(=O)(=O)O)C(OS(=O)(=O)O)C(OS(=O)(=O)O)C8OS(=O)(=O)O)C7OS(=O)(=O)O)C6OS(=O)(=O)O)C5OS(=O)(=O)O)CCC4(C)C3CCC12C (stereo not shown) | pKd | 7.41 |
| CCCCCCCCCCCCCCCCCC(=O)NCCCOC1OC(COS(=O)(=O)O)C(OS(=O)(=O)O)C(OS(=O)(=O)O)C1OC1OC(COS(=O)(=O)O)C(OS(=O)(=O)O)C(OC2OC(COS(=O)(=O)O)C(OS(=O)(=O)O)C(OC3OC(COS(=O)(=O)O)C(OS(=O)(=O)O)C(OC4OC(COS(=O)(=O)O)C(OS(=O)(=O)O)C(OS(=O)(=O)O)C4OS(=O)(=O)O)C3OS(=O)(=O)O)C2OS(=O)(=O)O)C1OS(=O)(=O)O (stereo not shown) | pKd | 7.10 |
| CC(C)CCCC(C)C1CCC2C3CCC4CC(OC5OC(COS(=O)(=O)O)C(OC6OC(COS(=O)(=O)O)C(OC7OC(COS(=O)(=O)O)C(OC8OC(COS(=O)(=O)O)C(OS(=O)(=O)O)C(OS(=O)(=O)O)C8OS(=O)(=O)O)C(OS(=O)(=O)O)C7OS(=O)(=O)O)C(OS(=O)(=O)O)C6OS(=O)(=O)O)C(OS(=O)(=O)O)C5OS(=O)(=O)O)CCC4(C)C3CCC12C (stereo not shown) | pKd | 6.41 |
| CC(C)CCCC(C)C1CCC2C3CCC4CC(OC5OC(COS(=O)(=O)O)C(OC6OC(COS(=O)(=O)O)C(OC7OC(COS(=O)(=O)O)C(OS(=O)(=O)O)C(OS(=O)(=O)O)C7OS(=O)(=O)O)C(OS(=O)(=O)O)C6OS(=O)(=O)O)C(OS(=O)(=O)O)C5OS(=O)(=O)O)CCC4(C)C3CCC12C (stereo not shown) | pKd | 6.26 |
